Hey, just so you know, these numbers are from a melting point compilation (Tetko et al.; mined from patent text by program, amines drawn as free bases though some values may be those of a salt).

Recorded melting point by entry

{"columns": ["Record Smiles", "melting point"],
 "data": [
  ["O=C(CCc1ccccc1)Nc1cc(C(=O)NCc2ccccc2)ccn1", "177 to 179 °C"],
  ["Cc1cc(-n2ccnc2)c2cccc(OCc3c(Cl)ccc(S(=O)(=O)N4CCC[C@H]4C(=O)NCC4CCN(C)CC4)c3Cl)c2n1", "86 °C"],
  ["O=C1CSc2c(ccc3ccccc23)N1", "211 to 212 °C"],
  ["COc1cc(CN2C(C(=O)O)=C(c3ccc4c(c3)OCO4)c3ccccc3S2(=O)=O)cc2c1OCO2", "181 to 182 °C"],
  ["O=C1CCCN(C(=O)c2ccc([N+](=O)[O-])cc2Cl)c2ccccc21", "140 to 143 °C"],
  ["Clc1ccc2c(Nc3ccccc3)ncnc2c1", "215 to 217 °C"],
  ["CCn1nc(C(=O)OC)cc1C", "165 to 168 °C"],
  ["O=C(Nc1cccc(-c2ccnc3c(C(=O)c4cccs4)cnn23)c1)OCCCN1CCOCC1", "198 to 199 °C"],
  ["CCOCOC1=C(c2cc(C)ccc2C)C(=O)NC12CCN(OC)CC2", "150 to 152 °C"],
  ["N#CCOc1ccc2cc(-c3cc4ccccc4o3)ccc2c1Cl", "162 to 163 °C"]
]}
